The reported numbers originate from patent US20250243282A1.

Below is a list of entries, each paired with its recorded % inhibition of TNFα secretion value.
Molecular target: Recombinant human Gal3 (rhGal3) (TrueBinding, #QC200361) (human, UniProt P17931 2-250); further: test concentration or dose not given here
Assay: cell-based or functional assay
Only the number, expressed in %, is required.

Take a look at these entries with their results.
847.3B3 (antibody, V domains shown) VH: QVQLKESGPGLVAPSQSLSITCTVSGFSLTSYGVHWIRQPPGKGLEWLGGIWAGGSTDYNSPLMSRLSITKDNSKSQVFLKMNSLQSDDTAMYYCASPPSGYDYDVFAYWGQGTLVTVSA VL: DILMTQSPASLSASVGETVTITCRASGNIHNYLAWYQQKQGKSPQLLVYSAKTLADGVPSRFSGSGSGTQFSLKIDSLQPEDFGTYYCQHFWSLFPTFGGGTKLEIK; 94.3
9H2.2H10 (antibody, human IgG4 S228P, kappa, V domains shown) VH: QVQLQQPGAELVGPGSSVKLSCKASGYTFTNYWIHWVKQRPLQGLEWIGNIDPSDSETHYNQKFKDKATLTVDKSSSTAYMQLSSLTSEDSAVYYCARHGYYDYWGQGTTLTVSS VL: DIVMTQSHKFMSTSVGDRVSITCKASQDVSTAVAWYQQKPGQSPKLLIYWASTRHTGVPDRFTGSGSGTDYTLTISSVQAEDLALYYCQQHYTTPLTFGAGTKLELKR; -39.2

Query :: Using known records, supply % inhibition of TNFα secretion for TB001 (antibody, human IgG4 S228P, kappa, V domains shown) VH: QVQLVQSGSELKKPGASVKVSCKASGYTFTNYGMNWVRQAPGQGLKWMGWINTNTGEPTYVEEFTGRFVFSLETSVSTAYLQISSLKAEDTAVYFCAPYDNFFAYWGQGTTVTVSS VL: DIVLTQSPLSLPVTPGEPASISCRSSKSLLYKDGKTYLNWFLQKPGQSPQLLIYLMSTHASGVPDRFSGSGSGTDFTLKISRVEAEDVGVYYCQQLVDYPLTFGGGTKLEIKR
Result :: 81.4
